- targetEntity: human TrkA receptor (Homo sapiens (Human), UniProt P04629)
- Sequence (P04629 33-796): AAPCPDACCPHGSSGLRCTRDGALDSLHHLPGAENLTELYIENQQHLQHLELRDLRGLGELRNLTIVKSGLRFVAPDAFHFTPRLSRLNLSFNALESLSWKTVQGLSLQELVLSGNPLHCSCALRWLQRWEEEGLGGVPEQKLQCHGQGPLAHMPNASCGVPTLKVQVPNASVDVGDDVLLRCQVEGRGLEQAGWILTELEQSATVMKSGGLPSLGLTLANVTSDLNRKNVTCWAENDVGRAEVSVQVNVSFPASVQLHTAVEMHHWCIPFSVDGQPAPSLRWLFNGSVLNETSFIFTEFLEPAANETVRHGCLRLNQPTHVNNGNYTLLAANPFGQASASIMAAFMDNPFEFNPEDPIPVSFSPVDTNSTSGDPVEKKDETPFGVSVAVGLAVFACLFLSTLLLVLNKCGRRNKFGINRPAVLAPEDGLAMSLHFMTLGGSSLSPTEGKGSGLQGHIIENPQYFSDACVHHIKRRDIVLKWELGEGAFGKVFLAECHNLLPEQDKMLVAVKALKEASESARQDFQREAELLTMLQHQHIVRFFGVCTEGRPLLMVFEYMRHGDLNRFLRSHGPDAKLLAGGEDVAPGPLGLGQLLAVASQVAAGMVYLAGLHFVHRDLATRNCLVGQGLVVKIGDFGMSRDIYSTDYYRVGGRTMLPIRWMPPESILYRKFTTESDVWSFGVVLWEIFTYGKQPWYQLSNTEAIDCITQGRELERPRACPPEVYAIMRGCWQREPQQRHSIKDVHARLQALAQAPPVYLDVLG
- test: TrkA functional activity, DiscoverX PathHunter assay
- Type: cell-based
- conditions: U2OS cells expressing human TrkA-PK, Shc1-EA and p75NTR; compound 1 h, then NGF at ~80% of maximal response for 3 h; luminescence
readout: pIC50
Answers are plain numbers, as −log10 of the molar value.

Take a look at these entries with their results.
- compound: "CC(O)c1ccc2nn(-c3ccccc3)c(NC(=O)c3ccc(C(F)(F)F)c(-c4ccn(C)n4)c3)c2c1 (single isomer, unassigned; isomer b) [Compound 24]"
  targetEntity: "human TrkA receptor (Homo sapiens (Human), UniProt P04629)"
  pIC50: 8.62
- compound: "CC(O)c1cnc2c(NC(=O)c3cc(-c4cc[nH]n4)c(C(F)(F)F)cc3F)n(-c3ccccc3)nc2c1 (single isomer, unassigned) [Compound 21]"
  targetEntity: "human TrkA receptor (Homo sapiens (Human), UniProt P04629)"
  pIC50: 9.16
- compound: "CC(O)c1cnc2c(NC(=O)c3cc(-c4ncccn4)c(C(F)(F)F)cc3Cl)n(-c3ccccc3)nc2c1 (single isomer, unassigned; isomer b) [Compound 36]"
  targetEntity: "human TrkA receptor (Homo sapiens (Human), UniProt P04629)"
  pIC50: 8.62
- compound: "Cn1ccc(-c2cc(C(=O)Nc3c4ncc(C(N)=O)cc4nn3-c3ccccc3)c(F)cc2C(F)(F)F)n1"
  targetEntity: "human TrkA receptor (Homo sapiens (Human), UniProt P04629)"
  pIC50: 9.20
- compound: "NC(=O)c1cnc2c(NC(=O)c3ccc(C(F)(F)F)c(-c4ncccn4)c3)n(-c3ccccc3)nc2c1"
  targetEntity: "human TrkA receptor (Homo sapiens (Human), UniProt P04629)"
  pIC50: 7.89

Next, consider the following compound.
input: # return recorded pIC50 for entry O=C(Nc1c2cc(C3(O)CC3)ccc2nn1-c1ccccc1)c1cc(-c2ncccn2)c(C(F)(F)F)cc1F
output: 8.80
